- protocol.text: The drug is tested on Bacteroides vulgatus strain: ATCC8482 for biotransformation. The drug concentrations were measured before and after a 12-h incubation by liquid-chromatography-coupled mass spectrometry (LC–MS)
- conditions: phocaeicola vulgatus, 2 µM
quantity.kind: Bacterial Biotransformation

So what does the record say about Bacterial Biotransformation for c1ccc([C@H]2CN3CCSC3=N2)cc1 ? Compound metabolized

Requested read-out: Bacterial Biotransformation. Entry: Cc1nc2n(c(=O)c1CCN1CCC(c3noc4cc(F)ccc34)CC1)CCCC2O (stereo not given) Compound metabolized

Given the molecule C#C[C@]1(OC(C)=O)CC[C@H]2[C@@H]3CCC4=C[C@@H](OC(C)=O)CC[C@@H]4[C@H]3CC[C@@]21C [ETHYNODIOL DIACETATE] , what is its reported Bacterial Biotransformation? Compound NOT metabolized

I would be grateful if you could share the reported Bacterial Biotransformation for C#C[C@]1(O)CC[C@H]2[C@@H]3CCC4=Cc5oncc5C[C@]4(C)[C@H]3CC[C@@]21C . Compound metabolized

Alright, here's another molecule for you.
Please give the measured Bacterial Biotransformation for this molecule: CCCc1nn(C)c2c(=O)[nH]c(-c3cc(S(=O)(=O)N4CCN(C)CC4)ccc3OCC)nc12.O=C(O)CC(O)(CC(=O)O)C(=O)O [SILDENAFIL CITRATE] Compound NOT metabolized

###

- protocol.text: The drug is tested on Eubacterium ventriosum strain: ATCC27560 for biotransformation. The drug concentrations were measured before and after a 12-h incubation by liquid-chromatography-coupled mass spectrometry (LC–MS)
- Type: ADME
- Set-up: dose 2 uM, timepoint 0 vs 12 hours
- conditions: 2 µM
quantity.kind: Bacterial Biotransformation

Example entries and their recorded answers appear below.
Reported Bacterial Biotransformation, compound COc1c(C)c2c(c(O)c1C/C=C(\C)CCC(=O)OCCN1CCOCC1)C(=O)OC2 [MYCOPHENOLATE MOFETIL] : ____ Compound metabolized

What value of Bacterial Biotransformation has been recorded for this entry: CC(C)(C)NC[C@H](O)COc1ccccc1C1CCCC1.CC(C)(C)NC[C@H](O)COc1ccccc1C1CCCC1.O=S(=O)(O)O [PENBUTOLOL SULFATE] Compound NOT metabolized

Requested field: Bacterial Biotransformation. Item: CN1CC(=O)N2[C@H](c3ccc4c(c3)OCO4)c3[nH]c4ccccc4c3C[C@@H]2C1=O Compound NOT metabolized

For the compound C=CCc1ccccc1OCC(O)CNC(C)C (centres undefined) [ALPRENOLOL] , what Bacterial Biotransformation is on record? Compound NOT metabolized

I'd like to know its Bacterial Biotransformation. The compound in question is CCCN1C[C@H](CSC)C[C@@H]2c3cccc4[nH]cc(c34)C[C@H]21.CS(=O)(=O)O [PERGOLIDE MESYLATE] Compound NOT metabolized

Respectfully, I request Bacterial Biotransformation for each entry included below.
1. OCCOCCN1CCN(C2=Nc3ccccc3Sc3ccccc32)CC1 [QUETIAPINE]
2. C[C@@H]1CC[C@H]2[C@@H](C)C(=O)O[C@@H]3O[C@@]4(C)CC[C@@H]1[C@]32OO4 [ARTEMISININ]

["Compound NOT metabolized", "Compound metabolized"]

// each listed compound needs a value for Bacterial Biotransformation
1. CCOc1ccc(NC(C)=O)cc1 [PHENACETIN]
2. CCOc1ccc2nc(S(N)(=O)=O)sc2c1 [ETHOXZOLAMIDE]

1: Compound NOT metabolized; 2: Compound metabolized

###

- protocol.text: The drug is tested on Blautia luti strain: DSM14534 for biotransformation. The drug concentrations were measured before and after a 12-h incubation by liquid-chromatography-coupled mass spectrometry (LC–MS)
- Format: ADME
- Design: dose 2 uM, timepoint 0 vs 12 hours
- conditions: 2 µM
quantity.kind: Bacterial Biotransformation

Look up Bacterial Biotransformation for this molecule: CCCCCNC(=N)N/N=C/c1c[nH]c2ccc(OC)cc12.O=C(O)/C=C\C(=O)O [TEGASEROD MALEATE] Compound NOT metabolized

Reported Bacterial Biotransformation, molecule N[C@@H](Cc1ccc(N(CCCl)CCCl)cc1)C(=O)O : ____ Compound metabolized

Query (molecule): O=c1[nH]c2ccccc2n1C1CCN(CCCC(c2ccc(F)cc2)c2ccc(F)cc2)CC1 [PIMOZIDE] ; field requested: Bacterial Biotransformation Compound NOT metabolized

For O=C(O)CCC(=O)O.O=C(O[C@H]1CN2CCC1CC2)N1CCc2ccccc2[C@@H]1c1ccccc1 [SOLIFENACIN SUCCINATE] , what is its reported Bacterial Biotransformation? Compound NOT metabolized

Quick one: Bacterial Biotransformation of C#C[C@]1(OC(C)=O)CC[C@H]2[C@@H]3CCC4=CC(=O)CC[C@@H]4[C@H]3CC[C@@]21C [NORETHINDRONE ACETATE] ? Compound metabolized

Report Bacterial Biotransformation for every entry below.
1. CCN(CC)CCNC(=O)c1cc(Cl)c(N)cc1OC [METOCLOPRAMIDE]
2. CC1OC(OC2C(O)CC(OC3C(O)CC(OC4CCC5(C)C(CCC6C5CCC5(C)C(C7=CC(=O)OC7)CCC65O)C4)OC3C)OC2C)CC(O)C1O (stereo not drawn)
3. CCN1CCCC1CNC(=O)c1cc(S(=O)(=O)CC)c(N)cc1OC (stereo not drawn) [AMISULPRIDE]

Compound NOT metabolized
Compound NOT metabolized
Compound NOT metabolized

###

- protocol.text: The drug is tested on Bacteroides ovatus strain: ATCC8483 for biotransformation. The drug concentrations were measured before and after a 12-h incubation by liquid-chromatography-coupled mass spectrometry (LC–MS)
- conditions: 2 µM
quantity.kind: Bacterial Biotransformation

Sample records with Bacterial Biotransformation:
Given the compound Nc1nnc(-c2cccc(Cl)c2Cl)c(N)n1 [LAMOTRIGINE] , what is its reported Bacterial Biotransformation? Compound NOT metabolized

Quick check: Bacterial Biotransformation of CN(CCOc1ccc(CC2SC(=O)NC2=O)cc1)c1ccccn1.O=C(O)/C=C\C(=O)O (centres undefined) [ROSIGLITAZONE MALEATE] ? Compound NOT metabolized

State the recorded Bacterial Biotransformation for this entry: CN1CC(=O)N2[C@H](c3ccc4c(c3)OCO4)c3[nH]c4ccccc4c3C[C@@H]2C1=O Compound metabolized

Which Bacterial Biotransformation value belongs to O=c1n(CCCN2CCN(c3cccc(Cl)c3)CC2)nc2ccccn12 [TRAZODONE] ? Compound NOT metabolized

# Bacterial Biotransformation lookup, item N=C(N)NC(=O)Cc1c(Cl)cccc1Cl [GUANFACINE] Compound NOT metabolized

So what does the record say about Bacterial Biotransformation for NC(=O)N1c2ccccc2CC(=O)c2ccccc21 [OXCARBAZEPINE] ? Compound NOT metabolized

Request the reported Bacterial Biotransformation associated with O=C(O)CCc1nc(-c2ccccc2)c(-c2ccccc2)o1 [OXAPROZIN] Compound NOT metabolized

For the compound CCOc1cc(CC(=O)N[C@@H](CC(C)C)c2ccccc2N2CCCCC2)ccc1C(=O)O [REPAGLINIDE] , what Bacterial Biotransformation is on record? Compound NOT metabolized

Report Bacterial Biotransformation for each item below.
1. COc1cc(NC(C)CCCN)c2ncccc2c1.O=P(O)(O)O.O=P(O)(O)O (centres undefined) [PRIMAQUINE PHOSPHATE]
2. CN1CCc2cccc3c2[C@H]1Cc1ccc(O)c(O)c1-3 [APOMORPHINE]
3. CC(=O)O[C@]1(C(C)=O)CC[C@H]2[C@@H]3C=C(C)C4=CC(=O)CC[C@]4(C)[C@H]3CC[C@@]21C [MEGESTROL ACETATE]
4. Br.CN(C)CCCC1(c2ccc(F)cc2)OCc2cc(C#N)ccc21 (centres undefined) [CITALOPRAM HYDROBROMIDE]

["Compound metabolized", "Compound NOT metabolized", "Compound NOT metabolized", "Compound NOT metabolized"]

###

- protocol.text: The drug is tested on Bacteroides finegoldii strain: DSM17565 for biotransformation. The drug concentrations were measured before and after a 12-h incubation by liquid-chromatography-coupled mass spectrometry (LC–MS)
- conditions: 2 µM
quantity.kind: Bacterial Biotransformation

Solved cases below.
Reported Bacterial Biotransformation for OC(Cn1cncn1)(Cn1cncn1)c1ccc(F)cc1F [FLUCONAZOLE] : what is it? Compound NOT metabolized

// lookup Bacterial Biotransformation for N#Cc1ccc(C(c2ccc(C#N)cc2)n2cncn2)cc1 [LETROZOLE] Compound NOT metabolized

Find the recorded Bacterial Biotransformation belonging to CCN(C)C(=O)Oc1cccc([C@H](C)N(C)C)c1.O=C(O)C(O)C(O)C(=O)O [RIVASTIGMINE TARTRATE] and report it. Compound NOT metabolized

Fill blank: measured Bacterial Biotransformation of the compound CN1CCN(C2=Nc3ccccc3Oc3ccc(Cl)cc32)CC1.O=C(O)CCC(=O)O [LOXAPINE SUCCINATE] is ____. Compound NOT metabolized

// Bacterial Biotransformation lookup, key: COc1cc2nc(N3CCN(C(=O)C4COc5ccccc5O4)CC3)nc(N)c2cc1OC.CS(=O)(=O)O (stereo unspecified) [DOXAZOSIN MESYLATE] Compound NOT metabolized

Dear colleague, could you send me Bacterial Biotransformation for each of the items below? Thanks.
1. O=C(O)CCC(=O)O.O=C(O[C@H]1CN2CCC1CC2)N1CCc2ccccc2[C@@H]1c1ccccc1 [SOLIFENACIN SUCCINATE]
2. CCOc1cc(CC(=O)N[C@@H](CC(C)C)c2ccccc2N2CCCCC2)ccc1C(=O)O [REPAGLINIDE]
3. COCCCC/C(=N\OCCN)c1ccc(C(F)(F)F)cc1.O=C(O)/C=C\C(=O)O [FLUVOXAMINE MALEATE]

Compound NOT metabolized
Compound metabolized
Compound NOT metabolized

State the recorded Bacterial Biotransformation for every item in the following list.
1. Cc1ccccc1C(OCCN(C)C)c1ccccc1.O=C(O)CC(O)(CC(=O)O)C(=O)O (stereo unspecified) [ORPHENADRINE CITRATE]
2. CCN(CC)C(=O)/C(C#N)=C/c1cc(O)c(O)c([N+](=O)[O-])c1 [ENTACAPONE]
3. CCN(CC)CCOCCOC(=O)C1(c2ccccc2)CCCC1.O=C(O)CC(O)(CC(=O)O)C(=O)O [CARBETAPENTANE CITRATE]
4. CC(O)(CS(=O)(=O)c1ccc(F)cc1)C(=O)Nc1ccc(C#N)c(C(F)(F)F)c1 (stereo unspecified) [BICALUTAMIDE]
5. C#C[C@]1(OC(C)=O)CC[C@H]2[C@@H]3CCC4=C[C@@H](OC(C)=O)CC[C@@H]4[C@H]3CC[C@@]21C [ETHYNODIOL DIACETATE]

1: Compound NOT metabolized; 2: Compound metabolized; 3: Compound metabolized; 4: Compound NOT metabolized; 5: Compound NOT metabolized

Hey, can you go through the list below and give me Bacterial Biotransformation for every item?
1. CC(=O)OCC(=O)NCCCOc1cccc(CN2CCCCC2)c1 [ROXATIDINE ACETATE]
2. CC(C(=O)O)c1ccc2c(c1)Cc1cccnc1O2 (stereo unspecified) [PRANOPROFEN]
3. CCN(CC)CCOC(=O)C(Cc1cccc2ccccc12)CC1CCCO1.O=C(O)C(=O)O (stereo unspecified) [NAFRONYL OXALATE]

1. Compound metabolized
2. Compound metabolized
3. Compound NOT metabolized
